For each entry below, report its microsomal CLint value.
Test: in vitro
Conditions: human, microsomes

-- ask Report microsomal CLint, nothing else, for this compound: Nc1ccc(-c2ccccc2Cl)cc1
-- reply 39.8 µL/min/mg

-- ask Report microsomal CLint, nothing else, for this compound: COc1ccc(NC(=O)CCc2c(C)nc3nc(C)nn3c2C)cc1
-- reply 3.98 µL/min/mg

-- ask Report microsomal CLint, nothing else, for this compound: O=C(O)CCc1ccc(OCc2cc(Cl)ccc2-c2ccccc2)cc1
-- reply < 3 µL/min/mg

----------
For each entry below, report its fraction unbound at 5 h value.
Test: in vitro
Details: SD, HW or BN, rat, plasma

-- ask Report fraction unbound at 5 h, nothing else, for this compound: O=C1NC(=O)C(c2cnc3ccccn23)=C1c1cn2c3c(cccc13)CN(C(=O)N1CCOCC1)CC2
-- reply 0.114

-- ask Report fraction unbound at 5 h, nothing else, for this compound: COc1cc(-n2cnc3cc(-c4ccc(Cl)cc4)sc3c2=O)ccc1OCCN1CCCC1
-- reply 0.0099

-- ask Report fraction unbound at 5 h, nothing else, for this compound: CC(C)C(NC(=O)c1cc(Cl)ccc1C(F)(F)F)C(=O)c1ccc(C#N)cc1 (configuration not stated)
-- reply 0.0428

-- ask Report fraction unbound at 5 h, nothing else, for this compound: O=c1cc(N2CCOCC2)nc(NCc2cccc3ccccc23)[nH]1
-- reply 0.0251

-- ask Report fraction unbound at 5 h, nothing else, for this compound: N#Cc1ccc2ccc(=O)n(CCN3CC[C@H](NCc4cc5c(cn4)OCCO5)[C@H](O)C3)c2c1
-- reply 0.734

-- ask Report fraction unbound at 5 h, nothing else, for this compound: O=C(O)COc1ccc(Cl)cc1CN1CCN(S(=O)(=O)c2ccc(F)cc2)CC1
-- reply 0.089

-- ask Report fraction unbound at 5 h, nothing else, for this compound: Cc1ccccc1CN1CCC(N2CCC(n3c(=O)[nH]c4ccccc43)CC2)CC1
-- reply 0.299

----------
For each entry below, report its fraction unbound at 5 h value.
Experiment: in vitro
Conditions: SD, HW or BN, rat, plasma

-- ask Report fraction unbound at 5 h, nothing else, for this compound: CC(C)(C)OC(=O)NC[C@H]1CC[C@H](CNC(=O)c2cc(-c3cccc(CN)c3)nc3ccccc23)CC1
-- reply 0.0171

-- ask Report fraction unbound at 5 h, nothing else, for this compound: Cc1cc(-n2cnc3ccc(N[C@@H](C)c4ncc(F)cn4)nc32)n[nH]1
-- reply 0.483

-- ask Report fraction unbound at 5 h, nothing else, for this compound: CC(C)N1C(=O)[C@H](NC(=O)[C@@H](Cc2ccccc2OC(F)(F)F)NC(=O)OC(C)(C)C)CCc2ccccc21
-- reply 0.003

-- ask Report fraction unbound at 5 h, nothing else, for this compound: NC(=O)[C@@H](CCC(F)(F)F)N(Cc1ccc(-c2ncon2)cc1F)S(=O)(=O)c1ccc(Cl)cc1
-- reply 0.0119

-- ask Report fraction unbound at 5 h, nothing else, for this compound: CC(=O)N1CCN(c2nc3c(c(N(C)Cc4cc5ccccc5cn4)n2)CN(C(C)C)C3=O)CC1
-- reply 0.339

-- ask Report fraction unbound at 5 h, nothing else, for this compound: CC(C)(C)c1cc(NC(=O)NCc2ccccc2Sc2ccc3nnc(-c4ccccc4SCCO)n3c2)n(-c2ccc(O)c(Cl)c2)n1
-- reply 0.0013

-- ask Report fraction unbound at 5 h, nothing else, for this compound: CCOc1cc2ncc(C(N)=O)c(Nc3cccc(Cl)c3F)c2cc1N1CCN(C)CC1
-- reply 0.134

-- ask Report fraction unbound at 5 h, nothing else, for this compound: CC1(CCCc2cc(=O)oc3[nH]c(=O)[nH]c(=O)c23)CC1
-- reply 0.0149

-- ask Report fraction unbound at 5 h, nothing else, for this compound: COc1cc2c(cc1OC)C(=O)C(CC1CCN(Cc3ccccc3)CC1)C2 (configuration not stated)
-- reply 0.339

-- ask Report fraction unbound at 5 h, nothing else, for this compound: COc1ccccc1OCCNCC(O)COc1cccc2[nH]c3ccccc3c12 (configuration not stated)
-- reply 0.0262

-- ask Report fraction unbound at 5 h, nothing else, for this compound: COC[C@H](C)Oc1cc(O[C@@H](C)Cc2ccccc2)cc(C(=O)Nc2ccc(C(=O)O)cn2)c1
-- reply 0.0042

-- ask Report fraction unbound at 5 h, nothing else, for this compound: COc1cnc(-c2ccccc2C(F)(F)CNC(=O)c2ccc(COCC(F)(F)F)nc2)cn1
-- reply 0.0532

Where do these numbers come from? They come from ChEMBL document CHEMBL3301361.
